src = ChEMBL document CHEMBL4813952

assay_details: Cytotoxicity against human 293T/ACE2 cells measured after 48 hrs by CCK8 assay
Format: cell-based
Recorded measurements of CC50 at 48 h, one per entry

Example entries and their recorded answers appear below.
1. COC1=C2c3c4c5c(c(O)cc(OC)c5c5c(OC)cc(O)c(c35)C1=O)C(=O)[C@@H](OC)[C@@]41C[C@](C)(O)[C@@H]2[C@]1(C)O	> 10 µM
2. COc1c2c3c4c(c(OC)c(=O)c5c(O)cc(OC)c(c6c(OC)cc(O)c(c1=O)c63)c54)[C@@H](C(C)=O)[C@@](C)(O)C2 [HYPOCRELLIN A]	2 µM
3. COC1=CC(=O)c2c(O)c(OC)c3c(c2C1=O)-c1c(c(OC)c(O)c2c1C(=O)C(OC)=CC2O)C[C@](C)(O)[C@@H]3C(C)=O (some centres not stated)	> 10 µM

Query string: Item COc1c2c3c4c(c(OC)c(=O)c5c(O)cc(OC)c(c6c(OC)ccc(c1=O)c63)c54)CC(C)=C2C(C)=O has what recorded CC50 at 48 h?
Result string: > 10 µM

Query string: So what does the record say about CC50 at 48 h for COC1=C2c3c4c5c(c(O)cc(OC)c5c5c(OC)cc(O)c(c35)C1=O)C(=O)[C@@H](OC)[C@@]41C[C@](C)(O)[C@@H]2[C@@]1(C)O ?
Result string: > 10 µM

Query string: I am curious: what CC50 at 48 h value has been reported for COC1=C(CC(C)=O)C(=O)c2c(c(O)cc(OC)c2-c2c(OC)cc(O)c3c2C(=O)C(CC(C)=O)=C(OC)C3=O)C1=O ?
Result string: > 10 µM

Query string: // query CC50 at 48 h value for entry COc1c(O)c2c(=O)cc(OC)c3c4c(OC)cc(=O)c5c(O)c(OC)c6c(c(c1C[C@](C)(O)[C@H]6C(C)=O)c23)c54
Result string: 2.5 µM

* * *

Tested on: SARS-CoV-2
assay_details: Antiviral activity against SARS-CoV-2 Wuhan-HU-1 infected in African green monkey Vero E6 cells assessed as inhibition of viral infection when cells were preincubated for 1 hr followed by viral infection measured after 24 hrs by qPCR analysis
Assay type: functional, organism-based
condition_context: Severe acute respiratory syndrome coronavirus 2, Wuhan-HU-1, Vero C1008
quantity_name: pEC50
The read-out pEC50 is expressed as -log10 of concentration in moles per litre.

1) COc1c2c3c4c(c(OC)c(=O)c5c(O)cc(OC)c(c6c(OC)cc(O)c(c1=O)c63)c54)[C@@H](C(C)=O)[C@@](C)(O)C2	6.66

Proceeding to the next compound to report its pEC50.
Query string: Under SARS-CoV-2: pEC50 value of COc1c(O)c2c(=O)cc(OC)c3c4c(OC)cc(=O)c5c(O)c(OC)c6c(c(c1C[C@](C)(O)[C@H]6C(C)=O)c23)c54 ?
Result string: 6.68
